Test system: Escherichia coli IAI1
Assay: fold change of Cadaverine concentration vs plate DMSO controls (fold change (ratio)); higher = more amine produced, active = hit call of the paper (significant change in both replicates, either direction)
Settings: 20 µM; incubation time: 27 h, anaerobic, 37 °C
measured_quantity: fold change of Cadaverine concentration

## Task Fill in: fold change of Cadaverine concentration of CC(C)OC(=O)C(C(=O)OC(C)C)=C1SCCS1 is ___
## Result 0.976 (inactive)

## Task Fill in: fold change of Cadaverine concentration of CC(C)C[C@H](CN)CC(=O)O [Pregabalin] is ___
## Result 1.02 (inactive)

## Task Fill in: fold change of Cadaverine concentration of NC(=O)CN1CCCC1=O [Piracetam] is ___
## Result 0.997 (inactive)

## Task Fill in: fold change of Cadaverine concentration of C#C[C@]1(O)C=C[C@H]2[C@@H]3CCC4=CC(=O)CC[C@@H]4[C@H]3CC[C@@]21CC [Gestodene] is ___
## Result 0.995 (inactive)

====

Provide the recorded fold change of Tryptamine concentration for the entries that follow.
System: Clostridium sporogenes DSM 1664
Assay: fold change of Tryptamine concentration vs plate DMSO controls (fold change (ratio)); higher = more amine produced, active = hit call of the paper (significant change in both replicates, either direction)
Conditions: 20 µM; incubation time: 27 h, anaerobic, 37 °C
Structures can show the parent of a compound that is named as a salt.
Reply briefly: the number, and no unit.

## Task Requested read-out fold change of Tryptamine concentration, target or system Clostridium sporogenes DSM 1664, entry Cc1c(COC(=O)[C@@H]2[C@H](/C=C(\Cl)C(F)(F)F)C2(C)C)cccc1-c1ccccc1 (racemic)
## Result 0.975

## Task Requested read-out fold change of Tryptamine concentration, target or system Clostridium sporogenes DSM 1664, entry Fc1ccc([C@]2(Cn3cncn3)O[C@H]2c2ccccc2Cl)cc1 (racemic)
## Result 1.06

## Task Requested read-out fold change of Tryptamine concentration, target or system Clostridium sporogenes DSM 1664, entry O=C1C2(Cl)C3(Cl)C4(Cl)C(Cl)(Cl)C5(Cl)C3(Cl)C1(Cl)C5(Cl)C24Cl (stereo not given)
## Result 0.0206

## Task Requested read-out fold change of Tryptamine concentration, target or system Clostridium sporogenes DSM 1664, entry CNC(=O)Oc1ccc2c(c1)[C@]1(C)CCN(C)[C@@H]1N2C [Eserine hemisulfate salt]
## Result 1.02

## Task Requested read-out fold change of Tryptamine concentration, target or system Clostridium sporogenes DSM 1664, entry CCC(=O)O[C@@](Cc1ccccc1)(c1ccccc1)[C@@H](C)CN(C)C [Levopropoxyphene napsylate]
## Result 1.04

====

Tested on: Ruminococcus gnavus DSM 108212
Assay: fold change of 2-Phenylethylamine concentration vs plate DMSO controls (fold change (ratio)); higher = more amine produced, active = hit call of the paper (significant change in both replicates, either direction)
Details: 20 µM; incubation time: 27 h, anaerobic, 37 °C
Provide the recorded fold change of 2-Phenylethylamine concentration for the entries that follow.
Reply briefly: the number, and no unit.

## Task Requested read-out fold change of 2-Phenylethylamine concentration, target or system Ruminococcus gnavus DSM 108212, entry CCOC(=O)CC(SP(=S)(OC)OC)C(=O)OCC (stereo not drawn)
## Result 1

## Task Requested read-out fold change of 2-Phenylethylamine concentration, target or system Ruminococcus gnavus DSM 108212, entry C#C[C@]1(O)C=C[C@H]2[C@@H]3CCC4=CC(=O)CC[C@@H]4[C@H]3CC[C@@]21CC [Gestodene]
## Result 0.977

## Task Requested read-out fold change of 2-Phenylethylamine concentration, target or system Ruminococcus gnavus DSM 108212, entry CCCCc1c(C)nc(NCC)nc1OS(=O)(=O)N(C)C
## Result 0.996
